Target: PfPHB1 (Plasmodium falciparum, UniProt Q8IBC3)
Sequence (Q8IBC3 1-272): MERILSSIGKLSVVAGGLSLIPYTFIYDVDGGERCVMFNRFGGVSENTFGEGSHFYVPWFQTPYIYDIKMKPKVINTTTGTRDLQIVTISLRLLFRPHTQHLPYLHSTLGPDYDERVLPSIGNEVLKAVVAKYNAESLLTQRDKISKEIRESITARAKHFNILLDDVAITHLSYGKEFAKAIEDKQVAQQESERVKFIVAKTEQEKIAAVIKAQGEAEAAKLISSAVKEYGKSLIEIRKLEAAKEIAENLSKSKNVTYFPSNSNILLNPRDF
Assay: biochemical
assay.readout: Kd (nM)
Answer with a number only, understood to be in nM.

Param item = COc1ccc([C@@]23Oc4cc(OC)cc(OC)c4[C@]2(O)[C@H](O)[C@H](C(=O)N(C)C)[C@H]3c2ccccc2)cc1 ; retrieve measured Kd.
1370

----------
Molecular target: PfPHB2 (Plasmodium falciparum)
Sequence (Q8IJP8 1-304): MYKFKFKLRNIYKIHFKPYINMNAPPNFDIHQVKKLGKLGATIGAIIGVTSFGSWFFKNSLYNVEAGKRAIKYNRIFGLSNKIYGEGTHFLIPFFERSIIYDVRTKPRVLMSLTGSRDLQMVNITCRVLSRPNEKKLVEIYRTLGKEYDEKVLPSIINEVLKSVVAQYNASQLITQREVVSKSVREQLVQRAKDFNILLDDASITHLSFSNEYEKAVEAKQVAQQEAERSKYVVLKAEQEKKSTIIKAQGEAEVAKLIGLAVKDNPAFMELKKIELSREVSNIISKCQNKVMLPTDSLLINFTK
assay.readout: pKd
Value format note: pKd is -log10 of concentration (mol/L); just state the number.

Notebook entry, PfPHB2 (Plasmodium falciparum) assay: pKd of COc1ccc([C@@]23Oc4cc(OC)cc(OC)c4[C@]2(O)[C@H](O)[C@H](C(=O)N(C)C)[C@H]3c2ccccc2)cc1 = ?
6.17
